Origin of values: PubChem BioAssay AID1159580

Assay: chemical genetic growth profiling, strain panel (AID 1159580);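 also: tested at 20 µM; growth read once vehicle control cultures reached saturation at 30 °C; 1 = growth at the plate median or of vehicle wells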
Details: S. cerevisiae deletion strains, growth OD, locus YLR133W, strain CKI1, stronger effect = lower value
The campaign covered roughly 5,500 compounds. About 2,000 (36%) were called active. Inconclusive results (about 18%) are left out. The list shows a part of the results.
experimental readout: normalized growth
I'd appreciate a reply containing only the number, no unit.

- compound structure string: "Clc1ccc(-c2cnc(Nc3cc(Cl)cc(Cl)c3)s2)cc1"
  normalized growth: 0.117
- compound structure string: "O=S(=O)(NCc1ccc(C(F)(F)F)cc1)c1cc(Br)c(Br)s1"
  normalized growth: 0.839
- compound structure string: "Clc1ccccc1-c1csc(-c2ccncc2)n1"
  normalized growth: 0.979

Ask: What value of normalized growth has been reported for the following compound? COc1ccc(-c2cn3cc(C)ccc3n2)cc1
Result: 0.956

Ask: O=S(=O)(Nc1cc(Cl)c(Cl)cc1Cl)c1cc(C(F)(F)F)cc(C(F)(F)F)c1 , same question.
Result: 0.903

Ask: Clc1cccc(Nc2ncc(-c3ccc4c(c3)OCCCO4)s2)c1 , same question.
Result: 0.866

====

Assay: chemical genetic growth profiling, strain panel (AID 1159580)
Conditions: S. cerevisiae deletion strains, growth OD, locus YJL187C, strain SWE1
The whole screen tested about 5,500 compounds, of which about 2,000 (36%) were called active. Inconclusive results (about 18%) are left out. Rule as the data show it: active = normalized growth mostly below about 0.91 (no sharp cut-off); inconclusive = no clear call, values can overlap the other calls; inactive = mostly above about 0.92. This is one part of the list.
Select the matching outcome among true = active, false = inactive

- compound: "COc1ccc2c(c1)OCC(Cc1ccc(OC)c(O)c1)C2=O (stereo unspecified)"
  class: "false"
- compound: "COc1ccc2c(c1)OCC(Cc1ccc(O)c(OC)c1)C2=O (stereo unspecified)"
  class: "false"
- compound: "N[C@@H](C(=O)O)[C@@H](O)[C@H](O)[C@H](O)CO"
  class: "false"
- compound: "CCOC(=O)c1ccc(Oc2sccc2[N+](=O)[O-])cc1"
  class: "false"
- compound: "Cc1onc(-c2ccccc2)c1-c1ccc(S(N)(=O)=O)cc1"
  class: "false"

Ask: Could you check what this test reported for CCOC(=O)c1ccc(Oc2ccc(Cl)cc2Cl)c([N+](=O)[O-])c1 ?
Result: false

Ask: Brc1cccc(C=NCc2ccccc2)c1 , same question.
Result: true

Ask: N#Cc1cccc(CSC2=NCN(C3CC3)CN2)c1 , same question.
Result: false

Ask: COc1ccc2c(c1)OCC(Cc1ccc(OC)c(OC(C)=O)c1)C2=O (stereo unspecified) , same question.
Result: false

Ask: C[C@H]1C[C@@H](O)[C@]2(O)[C@@]13CC(=O)OC[C@@]2(C)[C@](C)(O)C(=O)C3 , same question.
Result: false

Ask: COc1cc2c(cc1OC)C1(O)C(=O)c3ccc(O)c(C(=O)O)c3OC1CO2 (stereo unspecified) , same question.
Result: false

====

Assay: chemical genetic growth profiling, strain panel (AID 1159580)
Conditions: S. cerevisiae deletion strains, growth OD, locus YLR027C, strain aat2, stronger effect = lower value
Out of some 5,500 compounds screened, about 2,000 (36%) were called active. Another 18% or so got no clear call; they are omitted. The list shows a part of the results.
experimental readout: normalized growth
I'd appreciate a reply containing only the number, no unit.

- compound: "COc1ccc2c(c1)OCC(Cc1ccc(OC)c(OC(C)=O)c1)C2=O (configuration not stated)"
  experimental readout: "normalized growth"
  measured: 0.97
- compound: "O=c1oc2ccccc2cc1O"
  experimental readout: "normalized growth"
  measured: 1.01

Ask: What value of normalized growth has been reported for the following compound? COc1ccc(-c2oc3cc(OC)c(OC)c(OC)c3c(=O)c2OC)cc1OC
Result: 0.986

Ask: COc1ccc2c(c1)OCC(Cc1ccc(OC)c(OC)c1)C2=O (configuration not stated) , same question.
Result: 0.922

Ask: C=NC(C(=O)NC1C(=O)N2C1SC(C)(C)C2C(=O)O)c1ccccc1 (configuration not stated) , same question.
Result: 1.02

Ask: CCCn1c(=O)c2[nH]c(C3CCCC3)nc2n(CCC)c1=O , same question.
Result: 0.987

====

Test: chemical genetic growth profiling, strain panel (AID 1159580);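 also: tested at 20 µM; growth read once vehicle control cultures reached saturation at 30 °C; 1 = growth at the plate median or of vehicle wells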
Conditions: S. cerevisiae deletion strains, growth OD, locus YJL164C, strain tpk1
In all, about 5,500 compounds went through this assay and about 2,000 (36%) were called active. Another 18% or so got no clear call; they are omitted. No stated cut-off is given here; in the data, active means normalized growth mostly below about 0.91 (no sharp cut-off); inconclusive means no clear call, values can overlap the other calls; inactive means mostly above about 0.92. Some of the results follow.
Select the matching outcome among active, inactive

Answered examples (3):
- molecule: "Oc1c(Cl)cc(Cl)c(Cl)c1Cc1c(O)c(Cl)cc(Cl)c1Cl"
  class: "active"
- molecule: "C=C1C(=O)[C@]23[C@H](O)[C@H]1CC[C@H]2[C@@]12CO[C@]3(O)[C@H](O)[C@@H]1C(C)(C)CC[C@@H]2O"
  class: "inactive"
- molecule: "CCCCCCCCCCCCCC(=O)OC1C(C)C2(O)C(C=C(CO)CC3(O)C(=O)C(C)=CC32)C2C(C)(C)C12OC(C)=O (stereo unspecified)"
  class: "inactive"

Ask: Could you check what this test reported for O=C(O)CCCCCCCC(=O)O ?
Result: inactive

Ask: COc1ccc2nc(S(=O)Cc3ncc(C)c(OC)c3C)[nH]c2c1 (stereo unspecified) , same question.
Result: inactive

Ask: CN(C/C=C/C#CC(C)(C)C)Cc1cccc2ccccc12 , same question.
Result: active

Ask: O=C1CCCN1CC#CCN1CCCC1 , same question.
Result: inactive

====

Measured normalized growth accompanies every entry in the list below.
Assay: chemical genetic growth profiling, strain panel (AID 1159580);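 also: tested at 20 µM; growth read once vehicle control cultures reached saturation at 30 °C; 1 = growth at the plate median or of vehicle wells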
Conditions: S. cerevisiae deletion strains, growth OD, locus YBL061C, strain skt5, stronger effect = lower value
The campaign covered roughly 5,500 compounds. About 2,000 (36%) were called active. Another 18% or so got no clear call; they are omitted. The list shows a part of the results.
I'd appreciate a reply containing only the number, no unit.

- compound: "CCN1C[C@@]2(COC)C3[C@@H](OC)[C@H]4[C@@H]1[C@]3(C(OC)C[C@H]2O)C1C[C@@]2(O)[C@H](OC(=O)c3ccccc3)C1[C@]4(OC(C)=O)[C@@H](O)[C@@H]2OC (some centres undefined)"
  normalized growth: 1
- compound: "COC(=O)[C@@H]1OC(=O)C2OC23[C@@]1(C)CCC1[C@@]2(C)CCC(=O)C(C)(C)C2C[C@@H](OC(C)=O)[C@]13C (some centres undefined)"
  normalized growth: 1.01
- compound: "COC1C=CC23c4cc5c(cc4CN(CC2O)[C@@H]3C1)OCO5 (some centres undefined)"
  normalized growth: 0.967

// moving on: another record for normalized growth
Ask: What value of normalized growth has been reported for the following compound? C[C@]12C=CC(=O)C=C1CCC1C2[C@@H](O)C[C@@]2(C)C1CC[C@]2(O)C(=O)CO (some centres undefined)
Result: 0.999

====

Assay: chemical genetic growth profiling, strain panel (AID 1159580);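 also: tested at 20 µM; growth read once vehicle control cultures reached saturation at 30 °C; 1 = growth at the plate median or of vehicle wells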
Conditions: S. cerevisiae deletion strains, growth OD, locus YOR144C, strain elg1, stronger effect = lower value
Hit rate of the full screen: of about 5,500 compounds, about 2,000 (36%) were called active. About 18% were inconclusive and are not listed. This is one part of the list.
Measured normalized growth accompanies every entry in the list below.
I'd appreciate a reply containing only the number, no unit.

- compound: "COc1ccc2c(=O)c(OC)c(-c3ccccc3)oc2c1"
  normalized growth: 0.924
- compound: "Cc1oncc1C(=O)Nc1ccc(C(F)(F)F)cc1"
  normalized growth: 0.988
- compound: "COc1ccc2c(c1)OCC(Cc1ccc(OC)c(OC)c1)C2=O (stereo not given)"
  normalized growth: 0.978
- compound: "NCCCCC(=O)O"
  normalized growth: 0.999
- compound: "CC(=O)O[C@]1(C)CC[C@@]23CC1C(C)(C)[C@@H]2CC[C@H]3C"
  normalized growth: 1.01
- compound: "COc1cc(OC)c2c(=O)cc(-c3ccccc3)oc2c1"
  normalized growth: 0.949
- compound: "NC1(C(=O)O)CC1"
  normalized growth: 1.02
- compound: "CC(=O)OC1CC(O)C(C)(C)C2CC(=O)C3(C)C(CCC4(C)C(c5ccoc5)OC(=O)C5OC543)C12C (stereo not given)"
  normalized growth: 0.996

Ask: What value of normalized growth has been reported for the following compound? NCCCNCCSP(=O)(O)O
Result: 0.982

Ask: CN(C)CCC(c1ccccc1)c1ccccn1 (stereo not given) , same question.
Result: 0.995

Ask: O=C(O)CCCCCCCC(=O)O , same question.
Result: 0.993

Ask: O=c1oc2ccccc2cc1O , same question.
Result: 0.996

Ask: CC(C)=CC1C(C(=O)OCc2cccc(Oc3ccccc3)c2)C1(C)C (stereo not given) , same question.
Result: 0.971

Ask: C[C@@H]1CC[C@H]2C(C)(C)C3CC12CC[C@@]3(C)O (stereo not given in full) , same question.
Result: 0.972

Ask: C[C@]12C=CC(=O)C=C1CCC1C2[C@@H](O)C[C@@]2(C)C1CC[C@]2(O)C(=O)CO (stereo not given in full) , same question.
Result: 0.987

Ask: CCCn1c(=O)c2[nH]c(C3CCCC3)nc2n(CCC)c1=O , same question.
Result: 0.965

Ask: COc1ccc2c(c1)OCC(Cc1ccc(OC)c(OC(C)=O)c1)C2=O (stereo not given) , same question.
Result: 0.996

Ask: Fc1ccc([C@@H]2CCNC[C@H]2COc2ccc3c(c2)OCO3)cc1 , same question.
Result: 1

Ask: COc1ccc2c(c1)OCC(Cc1ccc(OC)c(O)c1)C2=O (stereo not given) , same question.
Result: 0.95

Ask: COc1cc(C)c2c(=O)cc(-c3ccccc3)oc2c1 , same question.
Result: 0.968

Ask: C=C[C@@]1(C)CC(=O)[C@@]2(O)[C@](C)(O1)[C@@H](OC(C)=O)[C@@H](O)C1C(C)(C)CC[C@H](O)[C@@]12C (stereo not given in full) , same question.
Result: 0.991
